assay: Acute intravenous toxicity test in mice; type: in vivo; settings: mouse, in vivo; intravenous administration to mice
measurement_kind: LD50 at 72 h

So what's the measured LD50 at 72 h for this one? CCCCCCCCCCCCCCC(CCC)C(=O)O (stereo not shown) [M 3/14, 2-propylhexadecanoic acid] 150 to 175 mg/kg

From: patent US6319952A
